Molecular target: PKR R510Q (Homo sapiens, UniProt P30613, R510Q)
Sequence (P30613 whole entry R510Q): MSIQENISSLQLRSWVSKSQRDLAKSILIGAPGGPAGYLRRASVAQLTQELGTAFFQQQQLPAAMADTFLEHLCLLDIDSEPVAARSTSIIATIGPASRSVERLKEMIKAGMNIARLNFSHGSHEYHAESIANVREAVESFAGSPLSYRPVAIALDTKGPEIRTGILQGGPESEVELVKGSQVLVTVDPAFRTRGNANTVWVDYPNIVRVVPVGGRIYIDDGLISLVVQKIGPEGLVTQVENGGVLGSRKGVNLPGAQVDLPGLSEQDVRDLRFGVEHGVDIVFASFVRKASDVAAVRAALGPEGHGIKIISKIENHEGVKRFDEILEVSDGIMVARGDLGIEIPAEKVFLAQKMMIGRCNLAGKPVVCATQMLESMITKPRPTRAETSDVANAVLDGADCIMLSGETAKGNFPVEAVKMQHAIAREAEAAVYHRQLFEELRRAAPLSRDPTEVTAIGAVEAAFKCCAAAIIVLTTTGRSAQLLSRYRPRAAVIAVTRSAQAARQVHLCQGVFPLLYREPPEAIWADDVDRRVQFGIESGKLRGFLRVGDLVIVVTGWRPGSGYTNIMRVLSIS
Assay: PKR mutant assay (R510Q), AC50, LDH/NADH-coupled, absorbance at 340 nm
Conditions: Table 4; AC50, enzyme assay; read-out: PK R510Q
Protocol: Example 11. PKR Mutant Assay PKR or PKR mutant enzyme solution was diluted into a reaction mix, which contains 1× buffer (100 mM KCl, 50 mM Tris pH 7.5, 5 mM MgCl2) as well as PEP (conc depends on enzyme), 180 μM NADH, 0.5 units LDH, 1 mM DTT, 0.03% BSA; final assay concentrations after 1.11 fold dilution are indicated. […] 20 uL ADP was added to start reaction at room temperature and reaction progress was measured as changes in absorbance at 340 nm wavelength at room temperature. […]
pEC50: −log10 of the molar value.
Here, each record is paired with measured pEC50 data.

Answered cases to consult:
compound	pEC50
CN(c1csc(Cc2cnc(=O)[nH]c2)n1)c1ccnn(Cc2cccc3[nH]ncc23)c1=O [Compound 208]	< 6.10
Cn1c2nc(Cc3cc[nH]n3)sc2c2cnn(Cc3cccc4[nH][nH]c(=O)c34)c(=O)c21 [Compound 307]	> 6.52
Cn1c2nc(Cc3cc[nH]n3)sc2c2cnn(Cc3cccc4[nH]ccc34)c(=O)c21 [Compound 246]	> 6.52
Cn1c2nc(Cn3ccnc3)sc2c2cnn(Cc3cccc(C(N)=O)c3)c(=O)c21 [Compound 390]	< 6.10
Cn1c2nc(Cc3cc[nH]n3)sc2c2cnn(Cc3ccc4[nH]ncc4n3)c(=O)c21 [Compound 280]	> 6.52
O=c1c2c(cnn1Cc1ccccc1)c1sc(Cc3cc[nH]n3)nc1n2Cc1ccccc1 [Compound 407]	> 6.52
Cn1c2nc(Cn3cnnc3)sc2c2cnn(Cc3cccc4[nH]ncc34)c(=O)c21 [Compound 294]	6.10 to 6.52
C=CCn1ncc2c3sc(Cc4ccccn4)nc3n(C)c2c1=O [Compound 398]	< 6.10
Cn1cc(Cc2nc3c(s2)c2cnn(Cc4cccc5[nH]ncc45)c(=O)c2n3C)cn1 [Compound 186]	6.10 to 6.52
Cn1c2nc(Cc3ccc[nH]c3=O)sc2c2cnn(Cc3cccc4[nH]ncc34)c(=O)c21 [Compound 228]	> 6.52

Form field: pEC50 recorded for Cn1c2nc(Cc3cc[nH]c(=O)c3)sc2c2cnn(Cc3cccc4[nH]ncc34)c(=O)c21 [Compound 200] with PKR R510Q (Homo sapiens, UniProt P30613, R510Q) (enter value)
< 6.10

Recorded pEC50 for Cn1c2nc(Cc3cscn3)sc2c2cnn(Cc3ccccc3)c(=O)c21 [Compound 270] with PKR R510Q (Homo sapiens, UniProt P30613, R510Q), please?
> 6.52

Lab note: need pEC50 with PKR R510Q (Homo sapiens, UniProt P30613, R510Q) for entry Cn1c2nc(Cc3cc[nH]n3)sc2c2cnn(CC3CCCCC3)c(=O)c21 [Compound 397] , please look it up.
< 6.10

Tell me reported pEC50 for Cn1c2nc(Cc3cc[nH]n3)sc2c2cnn(Cc3ccc4c(F)c[nH]c4n3)c(=O)c21 [Compound 383] , tested with PKR R510Q (Homo sapiens, UniProt P30613, R510Q).
> 6.52

Form field: pEC50 recorded for Cc1nc2c(s1)c1cnn(Cc3cccc(C(N)=O)c3)c(=O)c1n2C [Compound 395] with PKR R510Q (Homo sapiens, UniProt P30613, R510Q) (enter value)
< 6.10

Write down the reported pEC50 of Cn1c2nc(Cc3cc[nH]n3)sc2c2cnn(Cc3cccc4sc(N)nc34)c(=O)c21 [Compound 235] , test system: PKR R510Q (Homo sapiens, UniProt P30613, R510Q).
> 6.52

What reported pEC50 corresponds to Cn1c2nc(Cc3cc[nH]n3)sc2c2cnn(Cc3ccc(O)c(N)c3)c(=O)c21 [Compound 256] on PKR R510Q (Homo sapiens, UniProt P30613, R510Q)?
> 6.52

* * *

A collection of compounds and their measured AC50
target: PKR K410E (Homo sapiens, UniProt P30613, K410E); assay: PKR mutant assay (K410E), AC50, LDH/NADH-coupled, absorbance at 340 nm; type: biochemical; conditions: Table 2; enzyme assay
Sequence (P30613 whole entry K410E): as the sequence (P30613 whole entry R510Q) above, with K410E, Q510R counted along it

Below: 3 compounds and their reported AC50.
compound	AC50
Cn1c2nc([S+](C)[O-])sc2c2cnn(Cc3ccc(C#N)cc3)c(=O)c21 (centres unmarked)	> 800 nM
Cn1c2nc(Cc3cccc(CO)c3)sc2c2cnn(Cc3cccc4[nH]ncc34)c(=O)c21	< 300 nM
COC(=O)c1nc2c(s1)c1cnn(Cc3cccc(OC)c3)c(=O)c1n2C	> 800 nM

What value of measured AC50 is listed for COc1cccc(Cn2ncc3c4sc(SC)nc4n(C)c3c2=O)c1 ?
< 300 nM

Quick one: AC50 for Cc1nc2c(s1)c1cnn(Cc3ccc4cn[nH]c4c3)c(=O)c1n2C ?
> 800 nM

* * *

molecular target: wild type PKR (Homo sapiens, UniProt P30613); test: Cell based ATP assay in purified red blood cells (Cell-Titer-Glo); design: endogenous in cells; host or cells: purified red blood cells from healthy volunteers; settings: Table 2; RBCs, overnight at 37° C., ATP levels
Sequence (P30613 whole entry): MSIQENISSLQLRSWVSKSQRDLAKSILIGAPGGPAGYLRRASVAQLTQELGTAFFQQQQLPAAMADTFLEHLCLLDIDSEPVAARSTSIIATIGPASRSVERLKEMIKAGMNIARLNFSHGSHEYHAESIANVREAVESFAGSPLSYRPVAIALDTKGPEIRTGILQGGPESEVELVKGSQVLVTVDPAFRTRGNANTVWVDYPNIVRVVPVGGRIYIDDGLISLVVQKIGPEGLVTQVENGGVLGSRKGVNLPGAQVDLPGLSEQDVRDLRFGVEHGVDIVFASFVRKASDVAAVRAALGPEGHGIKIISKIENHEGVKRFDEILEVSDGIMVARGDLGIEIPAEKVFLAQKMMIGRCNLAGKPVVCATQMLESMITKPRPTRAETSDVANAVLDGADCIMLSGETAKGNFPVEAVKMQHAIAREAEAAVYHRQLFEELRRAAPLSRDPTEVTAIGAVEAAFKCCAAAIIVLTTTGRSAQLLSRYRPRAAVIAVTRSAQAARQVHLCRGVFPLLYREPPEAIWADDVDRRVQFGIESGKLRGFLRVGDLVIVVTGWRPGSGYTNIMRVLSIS
# AC50 values compiled below

Examples from the recorded data:
compound	AC50
Cn1c2nc(Cc3n[nH]cc3C(F)(F)F)sc2c2cnn(Cc3cccc4[nH]ncc34)c(=O)c21 [Compound 172]	> 1000 nM
CC(O)c1nc2c(s1)c1cnn(Cc3cccc4[nH]ncc34)c(=O)c1n2C (centres unmarked) [Compound 106]	≤ 1000 nM
COc1cccc(Cc2nc3c(s2)c2cnn(Cc4cccc5[nH]ncc45)c(=O)c2n3C)n1 [Compound 169]	≤ 1000 nM
Cc1nc2c(s1)c1cnn(Cc3c[nH]cn3)c(=O)c1n2C [Compound 42]	> 1000 nM
Cn1c2nc([S+](C)[O-])sc2c2cnn(Cc3cccc(C(C)(C)O)c3)c(=O)c21 (centres unmarked) [Compound 87]	≤ 1000 nM
Cn1c2nc(C(C)(O)c3cc[nH]n3)sc2c2cnn(Cc3cccc4[nH]ncc34)c(=O)c21 (centres unmarked) [Compound 162]	≤ 1000 nM

# get_value(readout='AC50', item= COc1cccc(Cn2ncc3c4sc(S(C)(=O)=O)nc4n(C)c3c2=O)c1 [Compound 25] )
> 1000 nM

Given the entry Cn1c2nc(Cc3ccc(Cl)nc3)sc2c2cnn(Cc3cccc4[nH]ncc34)c(=O)c21 [Compound 150] , report its measured AC50.
> 1000 nM

* * *

molecular target: PKR R510Q (Homo sapiens, UniProt P30613, R510Q); assay: PKR mutant assay (R510Q), AC50, LDH/NADH-coupled, absorbance at 340 nm; format: biochemical; conditions: Table 2; enzyme assay; read-out: PK R510Q AC50
recordedEndpoint: AC50

For the record Cn1c2nc(Cc3ccc(C(N)=O)cc3)sc2c2cnn(Cc3cccc4[nH]ncc34)c(=O)c21 , what value of AC50 is listed for PKR R510Q (Homo sapiens, UniProt P30613, R510Q)?
> 800 nM

What measured AC50 is associated with CC(=O)c1cccc(Cn2ncc3c4sc([S+](C)[O-])nc4n(C)c3c2=O)c1 (stereo not drawn) on PKR R510Q (Homo sapiens, UniProt P30613, R510Q)?
> 800 nM

What value of AC50 on PKR R510Q (Homo sapiens, UniProt P30613, R510Q) does Cn1c2nc(Cc3ccc(Cl)nc3)sc2c2cnn(Cc3cccc4[nH]ncc34)c(=O)c21 have?
> 800 nM

Identify the measured AC50 of COC(=O)C(C(=O)OC)c1nc2c(s1)c1cnn(Cc3cccc4[nH]ncc34)c(=O)c1n2C for PKR R510Q (Homo sapiens, UniProt P30613, R510Q).
> 800 nM

Return AC50 measured with PKR R510Q (Homo sapiens, UniProt P30613, R510Q) given this compound: Cc1nc2c(s1)c1cnn(Cc3cccc(N)c3)c(=O)c1n2C
< 300 nM

Which AC50 is reported with PKR R510Q (Homo sapiens, UniProt P30613, R510Q) for this entry: COc1cccc(Cn2ncc3c4scnc4n(C)c3c2=O)c1 ?
< 300 nM

Observed AC50 on PKR R510Q (Homo sapiens, UniProt P30613, R510Q) for Cn1c2nc(C(O)c3ccccc3)sc2c2cnn(Cc3cccc4[nH]ncc34)c(=O)c21 (stereo not drawn) , please.
301 to 800 nM

Report AC50 for COc1cccc(Cn2ncc3c4sc(C(C)(C)O)nc4n(C)c3c2=O)c1 tested on PKR R510Q (Homo sapiens, UniProt P30613, R510Q).
< 300 nM

Form entry - test system: PKR R510Q (Homo sapiens, UniProt P30613, R510Q); read-out: AC50; compound: COc1cccc(Cn2ncc3c4sc(Cc5ccc(C(F)(F)F)cc5)nc4n(C)c3c2=O)c1
< 300 nM

Which measured AC50 belongs to Cn1c2nc([S+](C)[O-])sc2c2cnn(Cc3ccnc(N)c3)c(=O)c21 (stereo not drawn) , tested on PKR R510Q (Homo sapiens, UniProt P30613, R510Q)?
> 800 nM

Hi! What's the reported AC50 for COc1cccc(Cn2ncc3c4sc(C=O)nc4n(C)c3c2=O)c1 on PKR R510Q (Homo sapiens, UniProt P30613, R510Q)?
< 300 nM
